system_tested: ACE from rabbit lung (Oryctolagus cuniculus)
Construct: ACE from rabbit lung, A6778, Sigma-Aldrich, USA; purchased Sigma-Aldrich A6778; host or cells: rabbit lung (tissue-derived)
Sequence (P12822 34-1310): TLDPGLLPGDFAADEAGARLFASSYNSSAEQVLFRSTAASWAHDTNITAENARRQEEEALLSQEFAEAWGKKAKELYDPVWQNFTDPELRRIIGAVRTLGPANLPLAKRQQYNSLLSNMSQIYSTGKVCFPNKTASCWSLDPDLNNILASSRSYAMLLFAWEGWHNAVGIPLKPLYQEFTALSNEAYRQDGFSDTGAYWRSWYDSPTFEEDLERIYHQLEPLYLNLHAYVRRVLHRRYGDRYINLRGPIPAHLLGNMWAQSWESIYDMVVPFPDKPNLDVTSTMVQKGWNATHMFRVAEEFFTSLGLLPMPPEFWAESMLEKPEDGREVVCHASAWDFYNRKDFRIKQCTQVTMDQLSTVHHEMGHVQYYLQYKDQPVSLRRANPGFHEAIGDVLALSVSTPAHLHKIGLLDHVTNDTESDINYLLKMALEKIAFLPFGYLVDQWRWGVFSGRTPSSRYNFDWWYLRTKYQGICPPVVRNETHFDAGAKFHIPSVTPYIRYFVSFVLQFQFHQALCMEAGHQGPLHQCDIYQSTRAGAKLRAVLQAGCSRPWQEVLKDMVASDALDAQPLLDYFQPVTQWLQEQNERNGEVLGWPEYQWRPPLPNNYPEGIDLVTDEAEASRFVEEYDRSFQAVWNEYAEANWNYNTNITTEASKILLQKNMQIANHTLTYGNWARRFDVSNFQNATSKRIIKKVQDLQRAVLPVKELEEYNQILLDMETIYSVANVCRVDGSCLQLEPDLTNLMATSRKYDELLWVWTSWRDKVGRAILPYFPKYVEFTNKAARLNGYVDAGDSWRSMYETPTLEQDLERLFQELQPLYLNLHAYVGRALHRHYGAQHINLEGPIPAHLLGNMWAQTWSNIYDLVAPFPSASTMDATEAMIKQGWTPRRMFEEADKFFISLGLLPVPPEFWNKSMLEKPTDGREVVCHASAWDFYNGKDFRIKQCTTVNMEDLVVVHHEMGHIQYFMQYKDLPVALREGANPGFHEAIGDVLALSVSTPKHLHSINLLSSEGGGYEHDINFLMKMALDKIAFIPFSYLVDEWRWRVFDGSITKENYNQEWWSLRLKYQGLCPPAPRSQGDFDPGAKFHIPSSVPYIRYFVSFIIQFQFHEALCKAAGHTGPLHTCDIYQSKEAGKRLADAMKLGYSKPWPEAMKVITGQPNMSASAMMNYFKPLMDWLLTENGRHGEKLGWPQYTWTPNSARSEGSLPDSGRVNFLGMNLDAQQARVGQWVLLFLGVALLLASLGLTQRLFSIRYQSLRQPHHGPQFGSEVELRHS
assay_comment: ACE-inhibitory assay (ACE Activity Assay Kit, fluorescence)
Format: biochemical
assay_setup: ACE from rabbit lung
So I've got a bunch of molecules here, and I need their IC50 values.
One number for each entry, in µM.

{"columns": ["molecule", "reading_unit", "IC50"],
 "data": [
  ["Oc1ccc(/C=C/c2cc(O)cc3c2C(c2cc(O)cc(O)c2)C(c2ccc(O)cc2)O3)cc1 (stereo not drawn) [Compound 14, trans-ε-viniferin]", "µM", 14]
]}

Could you report IC50 for every entry in the following list?
1. Oc1ccc(C2Oc3cc(O)cc4c3C2c2cc(O)cc(O)c2C(c2ccc(O)cc2)C4C2c3cc(O)cc4c3C(c3cc(O)cc(O)c3C2c2ccc(O)cc2)C(c2ccc(O)cc2)O4)cc1 (single isomer, unassigned; (-))
2. Oc1ccc(/C=C\c2cc(O)cc3c2C(c2cc(O)cc(O)c2)C(c2ccc(O)cc2)O3)cc1 (stereo not drawn) [Compound 13, cis-ε-viniferin]

1. 7.7
2. 18

# input molecule: Oc1ccc(/C=C\c2cc(O)cc3c2[C@H](c2cc(O)cc4c2[C@H](c2cc(O)cc(O)c2)[C@@H](c2ccc(O)cc2)O4)[C@@H](c2ccc(O)cc2)O3)cc1 ; wanted: its IC50
15.2

Each recorded value in this set is attributed to paper PMC11280411.
